Data provenance: patent US6875741

Documented IGF-1R/IR ratio comparison across a set of binders
# TARGET_OF_ASSAY: T1, Soluble IGF-1R (R&D Systems, Cat. # 391-GR) (UniProt P08069 31-935, limits assumed)
# T1 construct: extracellular domain; bought; also called sIGF-1R
# METHOD: phage ELISA ratios compared
Lab note: write the figure by itself, no unit.

• QAVQPGFHEEFYDWFVRQVSTGVGGG [H2CA-4-H4-IGFR] = 4.2
• RCEEKQAEVGPSSDPFYHKMSELLGCR [B6Hα-3-E9-IR] = 14.2
• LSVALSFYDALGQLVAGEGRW [20E2A-3-A12-IGFR] = 3.9
• ICTGQGFYQVLCGLLRGTSAR [20E2B-2-B3-IGFR] = 7.4

Here is the next item to consider.
Entry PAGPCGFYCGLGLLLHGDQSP [20E2B-4-H8-IGFR] has what IGF-1R/IR ratio comparison? 5.9
